// provenance: patent US20190359687A1

Item-by-item account of percentage of input scFv antibody bound
# tgt: T1, human glycophorin A on human red blood cells or red blood cell membranes (human, UniProt P02724 20-150)
# T1 construct: whole, on cells; also called hRBC; human RBC membranes
# T1 sequence (looked up): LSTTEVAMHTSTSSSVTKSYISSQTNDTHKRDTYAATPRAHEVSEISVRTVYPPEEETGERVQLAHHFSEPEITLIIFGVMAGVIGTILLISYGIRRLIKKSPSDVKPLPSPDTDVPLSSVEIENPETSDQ
# test: scFv on intact human RBC, unbound scFv by ELISA; 0 min after 200-fold dilution
The answer is to be given in %; state only the numeric part.

Worked cases, answers included:
binder	percentage of input scFv antibody bound / %
TPP-7795 scFv with C-terminal 6xHIS tag (scFv) scFv: DIQLTQSPSFLSASVGDRVTITCRASSSVSYIYWFQQKPGKAPKLLIYATSFLQSGVPSRFSGSGSGTEYTLTISSLQPEDFATYYCHQRNSFPYTFGQGTKLEIKGGGGSGGGGSGGGGSGGGGSEVQLVQSGAEVKKPGASVKVSCKASGYTFTTYTIHWVRQAPGQGLEWMGYINPKSGWTRYNPKFKGRVTMTRDKSTSTAYMELRSLRSDDTAVYYCQTGTRDYWGQGTTVTVSSHHHHHH	100
TPP-7794 scFv with C-terminal 6xHIS tag (scFv) scFv: DIQLTQSPSFLSASVGDRVTITCRASSSVRYIYWFQQKPGKAPKLLIYATSFRQSGVPSRFSGSGSGTEYTLTISSLQPEDFATYYCHQRNSFPYTFGQGTKLEIKGGGGSGGGGSGGGGSGGGGSEVQLVQSGAEVKKPGASVKVSCKASGYTFTTYAIHWVRQAPGQGLEWMGYINPSSGYTRYNPKFKHRVTMTRDKSTSTAYMELRSLRSDDTAVYYCWTGTRDYWGQGTTVTVSSHHHHHH	85
TPP-7790 scFv with C-terminal 6xHIS tag (scFv) scFv: DIQLTQSPSFLSASVGDRVTITCRASSSVRYIYWFQQKPGKAPKLLIYATSFLQSGVPSRFSGSGSGTEYTLTISSLQPEDFATYYCHQRNSFPYTFGQGTKLEIKGGGGSGGGGSGGGGSGGGGSEVQLVQSGAEVKKPGASVKVSCKASGYTFTTYAIHWVRQAPGQGLEWMGYINPSSGYTRYNPKFKHRVTMTRDKSTSTAYMELRSLRSDDTAVYYCWTGTRDYWGQGTTVTVSSHHHHHH	99
TPP-7778 scFv with C-terminal 6xHIS tag (scFv) scFv: DIQLTQSPSFLSASVGDRVTITCRASSSVRYIYWFQQKPGKAPKLLIYATSTLQSGVPSRFSGSGSGTEYTLTISSLQPEDFATYYCHQRNSFPYTFGQGTKLEIKGGGGSGGGGSGGGGSGGGGSEVQLVQSGAEVKKPGASVKVSCKASGYTFTTYAIHWVRQAPGQGLEWMGYINPSSGYTRYNPKFKHRVTMTRDKSTSTAYMELRSLRSDDTAVYYCQTGTRDYWGQGTTVTVSSHHHHHH	97
TPP-7782 scFv with C-terminal 6xHIS tag (scFv) scFv: DIQLTQSPSFLSASVGDRVTITCRASSSVRYIYWFQQKPGKAPKLLIYATSFRQSGVPSRFSGSGSGTEYTLTISSLQPEDFATYYCHQRNSFPYTFGQGTKLEIKGGGGSGGGGSGGGGSGGGGSEVQLVQSGAEVKKPGASVKVSCKASGYTFTTYTIHWVRQAPGQGLEWMGYINPSSGYTRYNPKFKGRVTMTRDKSTSTAYMELRSLRSDDTAVYYCQTGTRDYWGQGTTVTVSSHHHHHH	92
TPP-7792 scFv with C-terminal 6xHIS tag (scFv) scFv: DIQLTQSPSFLSASVGDRVTITCRASSSVRYIYWFQQKPGKAPKLLIYATSFRQSGVPSRFSGSGSGTEYTLTISSLQPEDFATYYCHQRNSFPYTFGQGTKLEIKGGGGSGGGGSGGGGSGGGGSEVQLVQSGAEVKKPGASVKVSCKASGYTFTTYAIHWVRQAPGQGLEWMGYINPSSGYTRYNPKFKGRVTMTRDKSTSTAYMELRSLRSDDTAVYYCWTGTRDYWGQGTTVTVSSHHHHHH	100

What does the data say about its percentage of input scFv antibody bound? Entry: TPP-7781 scFv with C-terminal 6xHIS tag (scFv) scFv: DIQLTQSPSFLSASVGDRVTITCRASSSVRYIYWFQQKPGKAPKLLIYATSTLQSGVPSRFSGSGSGTEYTLTISSLQPEDFATYYCHQRNSFPYTFGQGTKLEIKGGGGSGGGGSGGGGSGGGGSEVQLVQSGAEVKKPGASVKVSCKASGYTFTTYTIHWVRQAPGQGLEWMGYINPKSGWTRYNPKFKGRVTMTRDKSTSTAYMELRSLRSDDTAVYYCQTGTRDYWGQGTTVTVSSHHHHHH
97

What does the data say about its percentage of input scFv antibody bound? Entry: TPP-7793 scFv with C-terminal 6xHIS tag (scFv) scFv: DIQLTQSPSFLSASVGDRVTITCRASSSVSYIYWFQQKPGKAPKLLIYATSTLQSGVPSRFSGSGSGTEYTLTISSLQPEDFATYYCHQRNSFPYTFGQGTKLEIKGGGGSGGGGSGGGGSGGGGSEVQLVQSGAEVKKPGASVKVSCKASGYTFTRYTIHWVRQAPGQGLEWMGYINPSSGYTRYNPKFKGRVTMTRDKSTSTAYMELRSLRSDDTAVYYCWTGTRDYWGQGTTVTVSSHHHHHH
92

What does the data say about its percentage of input scFv antibody bound? Entry: TPP-7783 scFv with C-terminal 6xHIS tag (scFv) scFv: DIQLTQSPSFLSASVGDRVTITCRASSSVRYIYWFQQKPGKAPKLLIYATSFRRSGVPSRFSGSGSGTEYTLTISSLQPEDFATYYCHQRNSFPYTFGQGTKLEIKGGGGSGGGGSGGGGSGGGGSEVQLVQSGAEVKKPGASVKVSCKASGYTFTTYAIHWVRQAPGQGLEWMGYINPSSGYTRYNPKFKHRVTMTRDKSTSTAYMELRSLRSDDTAVYYCWTGTRDYWGQGTTVTVSSHHHHHH
94

What does the data say about its percentage of input scFv antibody bound? Entry: TPP-7797 scFv with C-terminal 6xHIS tag (scFv) scFv: DIQLTQSPSFLSASVGDRVTITCRASSSVRYIYWFQQKPGKAPKLLIYATSFRQSGVPSRFSGSGSGTEYTLTISSLQPEDFATYYCHQRNSFPYTFGQGTKLEIKGGGGSGGGGSGGGGSGGGGSEVQLVQSGAEVKKPGASVKVSCKASGYTFTTYTIHWVRQAPGQGLEWMGYINPSSGYTRYNPKFKGRVTMTRDKSTSTAYMELRSLRSDDTAVYYCWTGRRDYWGQGTTVTVSSHHHHHH
98
